System: Salmonella TA100
Experiment: Salmonella plate-incorporation mutagenicity assay, strain TA100
Assay type: cell-based
Settings: TA100 +S9, Test 3, 1 µg/plate; zero-dose 127/118/125
Attribute Measured: Rev/plate

Examples with their reported Rev/plate follow.
{"columns": ["Compound", "Rev/plate"],
 "data": [
  ["O[C@@H]1C=Cc2c(ccc3ccc4sccc4c23)[C@H]1O (racemic) [P[3,4-b]T 8,9-diol]", "178/187"],
  ["c1ccc2c(c1)ccc1ccc3ccsc3c12 [P[4,3-b]T, Phenanthro[4,3-b]thiophene]", "142/160"],
  ["O[C@@H]1C=Cc2c(ccc3ccc4ccsc4c23)[C@H]1O (racemic) [P[4,3-b]T 8,9-diol]", "610/511"],
  ["O[C@@H]1C=Cc2c(ccc3ccc4ccccc4c23)[C@H]1O (racemic) [B[c]P 3,4-diol]", "474/494"],
  ["c1ccc2c(c1)ccc1ccc3ccccc3c12 [B[c]P, Benzo[c]phenanthrene]", "250/217"]
]}

In the following, a different compound is considered.
# return Rev/plate of O=S1(=O)C=Cc2c1ccc1ccc3ccccc3c21 [P[3,4-b]T sulfone, Phenanthro[3,4-b]thiophene sulfone] (system: Salmonella TA100)
1332/1283

----------
Reported Rev/plate values for a set of compounds
Test system: Salmonella TA98
Assay: Salmonella plate-incorporation mutagenicity assay, strain TA98, with S9 mix
Assay type: cell-based
Settings: TA98 +S9, Test 1, 80 µg/plate; zero-dose 33/40/39
Express your answer in rev/plate, writing the number without its unit.

Past entries and their recorded results:
{"columns": ["Compound", "Unit Tag", "Rev/plate"],
 "data": [
  ["O[C@@H]1c2ccccc2-c2c(ccc3ccsc23)[C@H]1O (racemic) [P[4,3-b]T 6,7-diol]", "rev/plate", 36],
  ["O[C@@H]1C=Cc2c(ccc3ccc4ccccc4c23)[C@H]1O (racemic) [B[c]P 3,4-diol]", "rev/plate", 417],
  ["O=S1(=O)C=Cc2c1ccc1ccc3ccccc3c21 [P[3,4-b]T sulfone, Phenanthro[3,4-b]thiophene sulfone]", "rev/plate", 1268]
]}

Recall the reported Rev/plate of c1ccc2c(c1)ccc1ccc3ccsc3c12 [P[4,3-b]T, Phenanthro[4,3-b]thiophene] when tested on Salmonella TA98.
105

Under Salmonella TA98: report Rev/plate of O[C@@H]1c2ccccc2-c2c(ccc3sccc23)[C@H]1O (racemic) [P[3,4-b]T 6,7-diol] .
130

Write Rev/plate of O[C@@H]1C=Cc2c(ccc3ccc4sccc4c23)[C@H]1O (racemic) [P[3,4-b]T 8,9-diol] ; system used: Salmonella TA98
412

----------
Tested on: Salmonella TA104
Assay: Salmonella plate-incorporation mutagenicity assay, strain TA104, with S9 mix
Assay type: cell-based
Conditions: TA104 +S9, Test 3, 2.5 µg/plate; zero-dose 402/395/336
Documented Rev/plate across a set of compounds

Solved entries:
{"columns": ["Compound", "Rev/plate"],
 "data": [
  ["O[C@@H]1C=Cc2c(ccc3ccc4ccccc4c23)[C@H]1O (racemic) [B[c]P 3,4-diol]", "1368/1509"],
  ["O=S1(=O)C=Cc2c1ccc1ccc3ccccc3c21 [P[3,4-b]T sulfone, Phenanthro[3,4-b]thiophene sulfone]", "1027/982"],
  ["O[C@@H]1C=Cc2c(ccc3ccc4sccc4c23)[C@H]1O (racemic) [P[3,4-b]T 8,9-diol]", "1235/1287"]
]}

Supply recorded Rev/plate for O[C@@H]1C=Cc2c(ccc3ccc4ccsc4c23)[C@H]1O (racemic) [P[4,3-b]T 8,9-diol] here.
1827/1822
